assay: gradient 5% acetonitrile 3 min, to 50% in 2 min, to 85% in 15 min, held 3 min, 100 µL/min; conditions: column: Zorbax Extend-C18 2.1 x 50 mm; eluents: water / acetonitrile, 0.1% formic acid
measured property: RP-LC retention time
Give your result as the value with the unit written after it.

Some molecules with recorded RP-LC retention time:
CN(C)c1cc2c(Nc3ccc4c(cnn4Cc4ccccc4)c3)ncnc2cn1
820 s
Cc1cccc(S(=O)(=O)N2CCC(n3cnnc3C(C)C)CC2)c1
735 s
Cc1ccc(NC(=O)N2CCCC(Cn3cnc4cccnc43)C2)c(C)c1 (centres undefined)
680 s
Cn1nc(-c2nc(C3CC3)no2)c2c1CCN(C(=O)c1cccnc1)C2
642 s
COc1ccccc1CNC(=O)C1CCCN(c2cnc3nc(C)c(C)nc3c2)C1 (centres undefined)
727 s

Parameter requested: RP-LC retention time. Apply to each item below.
1. CNc1cc(NS(=O)(=O)c2ccc(N)cc2)nc(NC)n1
2. Cc1cc(-c2ccc(C)c(S(=O)(=O)Nc3ccc(Cl)cc3)c2)n[nH]1
3. CCCN1CCc2cc(O)cc3c2[C@H]1Cc1ccc(O)c(O)c1-3
4. Cc1cc(C)nc(NS(=O)(=O)c2ccc(Nc3nc(-c4ccc(F)c(C)c4)cs3)cc2)n1

["370 s", "898 s", "646 s", "1000 s"]

* * *

test: gradient 5% acetonitrile 3 min, to 50% in 2 min, to 85% in 15 min, held 3 min, 100 µL/min; details: column: Zorbax Extend-C18 2.1 x 50 mm; eluents: water / acetonitrile, 0.1% formic acid
measured property: RP-LC retention time (s)
Answers are plain numbers, in s.

Some molecules with recorded RP-LC retention time:
Cn1cc(CN2CCCC(COc3ccccc3C(=O)NC3CC3)C2)c2ccccc21 (configuration not stated)
686
OCCc1nc2ccccc2n1C/C=C/c1ccccc1
586
Cc1c(Cl)cccc1S(=O)(=O)N1CCc2nc(-c3ccc(F)cc3)ncc2C1
1250
COc1ccc(-c2nnc(CC(=O)NCC(C)C)o2)cc1
705

Parameter requested: RP-LC retention time. Apply to each item below.
1. O=C(Cc1csc2nc(-c3ccccc3)cn12)Nc1ccc(C(F)(F)F)cc1
2. Cc1ccnc(N2CCCC(C(=O)NCc3ccc(C)o3)C2)n1 (configuration not stated)
3. CCCn1c(=O)sc2cc(S(=O)(=O)N3CCC(C(=O)Nc4cc(C)ccc4C)CC3)ccc21
4. CCc1nn2c(CNC(=O)c3ccoc3)c(-c3ccccc3)nc2s1
5. Cc1ccc(C)c(NS(=O)(=O)c2ccc3c(c2)C(=O)N(C)c2ncccc2O3)c1

1: 922; 2: 694; 3: 985; 4: 808; 5: 970

* * *

test: gradient 5% acetonitrile 3 min, to 50% in 2 min, to 85% in 15 min, held 3 min, 100 µL/min; conditions: column: Zorbax Extend-C18 2.1 x 50 mm; eluents: water / acetonitrile, 0.1% formic acid
Returns one of Met or Not met; Met when RP-LC retention time is >= 1000 s.

Cc1cc2n(n1)CCCN2C(=O)CCC(=O)N1CCN(c2cccc(Cl)c2)CC1
Not met
CC(=O)N1CCc2cc(CNS(=O)(=O)c3ccc(Br)cc3)ccc21
Not met
CC(NC(=O)c1ccc(-c2ccnc(N3CCCCC3)n2)cc1)c1cccnc1 (configuration not stated)
Not met
COc1ccc(N2CCN(c3cc(SCC(=O)Nc4cc(Cl)ccc4C)ncn3)CC2)cc1
Met
COc1ccc(NC(=O)Cn2c(N3CCCC3)nc(C)cc2=O)c(OC)c1
Not met
CCCN1CCCCc2cc(C(=O)NCC(C)C)sc21
Met

Threshold query (RP-LC retention time >= 1000 s) on `COC(=O)C(=Cc1ccccc1[N+](=O)[O-])C(=O)OC`
Not met

Threshold query (RP-LC retention time >= 1000 s) on `CCc1ccc(NC(=O)Cn2nc(C(=O)N3CCCC3)c3ccccc32)cc1`
Not met

Threshold query (RP-LC retention time >= 1000 s) on `CN1C(=O)COc2ccc(-c3csc(NC(=O)c4ccco4)n3)cc21`
Not met
